Experiment: Hepatocyte stability assay, dog
Assay type: in vitro ADME
Conditions: male, Beagle, pooled hepatocytes, 37° C., read-out: Dog T1/2
Experimental: Test and control compounds were incubated with hepatocytes at 37° C. Aliquots were removed at 6 timepoints over a one hour period. Samples were centrifuged and the supernatant fractions analysed for parent compound by mass spectrometry (LC-MS/MS). The amount of compound remaining (expressed as %) was determined from the MS response in each sample relative to that in the T=0 samples, and used to determine the half-life and intrinsic clearance of the compound.
readout: half-life (min)
Respond with the bare value in min.

According to the records, this molecule NC(=O)c1nc(-c2c(Cl)cccc2Cl)oc1Nc1ccc(C(=O)N2CCS(=O)(=O)CC2)c(F)c1 displays half-life of 185

* * *

assay: Hepatocyte stability assay, rat; assay type: in vitro ADME; conditions: male, Sprague-Dawley, pooled hepatocytes, 37° C., read-out: Rat T1/2
readout: half-life (min)
Provide only the numeric value, understood in min.

Lab note: measured half-life of NC(=O)c1nc(-c2c(Cl)cccc2Cl)oc1Nc1ccc(C(=O)N2CCS(=O)(=O)CC2)c(F)c1 was 28.5

* * *

pIC50: −log10 of the molar value.
// values below are pIC50; system is CYP1A2 (Homo sapiens, UniProt P05177)
Sequence (P05177 whole entry): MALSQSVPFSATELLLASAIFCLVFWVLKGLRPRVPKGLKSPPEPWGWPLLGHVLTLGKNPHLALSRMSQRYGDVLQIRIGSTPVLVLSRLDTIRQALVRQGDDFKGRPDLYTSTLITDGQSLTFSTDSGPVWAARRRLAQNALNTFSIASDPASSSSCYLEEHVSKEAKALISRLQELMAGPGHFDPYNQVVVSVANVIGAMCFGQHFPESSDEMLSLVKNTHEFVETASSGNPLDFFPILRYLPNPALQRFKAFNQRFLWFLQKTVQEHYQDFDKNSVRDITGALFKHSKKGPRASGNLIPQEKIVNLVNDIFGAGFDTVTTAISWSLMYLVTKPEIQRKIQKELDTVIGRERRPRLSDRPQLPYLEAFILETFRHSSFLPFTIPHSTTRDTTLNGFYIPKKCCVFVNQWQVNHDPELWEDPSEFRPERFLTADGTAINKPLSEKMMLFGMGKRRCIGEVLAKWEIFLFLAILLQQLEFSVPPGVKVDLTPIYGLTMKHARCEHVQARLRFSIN

Some compounds with known pIC50 results, for comparison:
NC(=O)c1nc(-c2c(Cl)cccc2Cl)oc1Nc1ccc(C(=O)N2CCOCC2)cc1 [Comparative Compound B, reference compound] :: < 4.52
NC(=O)c1nc(-c2c(Cl)cccc2Cl)oc1Nc1ccc(C(=O)N2CCS(=O)(=O)CC2)cc1 [Compound (2)] :: < 4.52

Please look at the following compound next.
Log: CYP1A2 (Homo sapiens, UniProt P05177), compound NC(=O)c1nc(-c2c(Cl)cccc2Cl)oc1Nc1ccc(C(=O)N2CCS(=O)(=O)CC2)c(F)c1 [Compound (3)] , pIC50 = < 4.52

* * *

biological target: hERG potassium channel (Homo sapiens); experiment: hERG channel inhibition assay (hERG-HEK cells, Sophion Qube); details: hERG-HEK cells, tail current, room temperature
Sequence (Q12809 whole entry): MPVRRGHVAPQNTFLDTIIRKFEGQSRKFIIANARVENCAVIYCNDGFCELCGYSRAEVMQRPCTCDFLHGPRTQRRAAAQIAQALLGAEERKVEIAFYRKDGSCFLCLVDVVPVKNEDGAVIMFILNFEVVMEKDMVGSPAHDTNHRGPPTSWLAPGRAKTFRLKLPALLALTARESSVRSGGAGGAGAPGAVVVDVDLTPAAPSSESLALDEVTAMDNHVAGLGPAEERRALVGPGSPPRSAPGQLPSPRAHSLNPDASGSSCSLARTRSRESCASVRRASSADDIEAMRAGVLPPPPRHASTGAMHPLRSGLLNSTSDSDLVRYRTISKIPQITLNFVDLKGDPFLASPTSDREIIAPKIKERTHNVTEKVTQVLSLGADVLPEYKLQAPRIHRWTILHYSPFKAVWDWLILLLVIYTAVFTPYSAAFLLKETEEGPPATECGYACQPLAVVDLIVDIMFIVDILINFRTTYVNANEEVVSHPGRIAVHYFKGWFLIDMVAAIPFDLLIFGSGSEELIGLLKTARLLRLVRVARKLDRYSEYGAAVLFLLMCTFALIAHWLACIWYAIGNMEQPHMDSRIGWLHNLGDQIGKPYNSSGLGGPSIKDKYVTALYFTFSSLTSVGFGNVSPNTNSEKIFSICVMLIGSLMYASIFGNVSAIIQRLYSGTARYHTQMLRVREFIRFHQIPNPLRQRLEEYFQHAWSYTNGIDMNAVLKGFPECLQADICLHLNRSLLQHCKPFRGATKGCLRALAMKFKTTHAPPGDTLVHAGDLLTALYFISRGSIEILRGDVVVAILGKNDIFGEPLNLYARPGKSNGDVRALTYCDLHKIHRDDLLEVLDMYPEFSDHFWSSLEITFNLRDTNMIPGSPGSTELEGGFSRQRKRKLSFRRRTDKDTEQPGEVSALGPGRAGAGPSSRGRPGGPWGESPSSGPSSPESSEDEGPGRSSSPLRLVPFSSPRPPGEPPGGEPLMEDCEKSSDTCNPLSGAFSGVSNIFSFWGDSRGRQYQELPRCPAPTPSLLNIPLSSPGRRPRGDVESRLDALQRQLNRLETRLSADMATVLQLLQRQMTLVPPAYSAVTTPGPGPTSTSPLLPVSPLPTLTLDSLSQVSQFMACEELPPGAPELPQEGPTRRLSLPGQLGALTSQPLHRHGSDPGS
readout: IC50

Consider the following illustrative entries.
NC(=O)c1nc(-c2c(Cl)cccc2Cl)oc1Nc1ccc(C(=O)N2CCS(=O)(=O)CC2)c(F)c1 :: > 30 µM
NC(=O)c1nc(-c2c(Cl)cccc2Cl)oc1Nc1ccc(C(=O)N2CCOCC2)cc1 [Comparative Compound B, reference compound] :: ~30 µM

Please turn your attention to the following entry.
The reported value for NC(=O)c1nc(-c2c(Cl)cccc2Cl)oc1Nc1ccc(C(=O)N2CCS(=O)(=O)CC2)cc1 in terms of IC50 is > 30 µM

* * *

Sequence of the target: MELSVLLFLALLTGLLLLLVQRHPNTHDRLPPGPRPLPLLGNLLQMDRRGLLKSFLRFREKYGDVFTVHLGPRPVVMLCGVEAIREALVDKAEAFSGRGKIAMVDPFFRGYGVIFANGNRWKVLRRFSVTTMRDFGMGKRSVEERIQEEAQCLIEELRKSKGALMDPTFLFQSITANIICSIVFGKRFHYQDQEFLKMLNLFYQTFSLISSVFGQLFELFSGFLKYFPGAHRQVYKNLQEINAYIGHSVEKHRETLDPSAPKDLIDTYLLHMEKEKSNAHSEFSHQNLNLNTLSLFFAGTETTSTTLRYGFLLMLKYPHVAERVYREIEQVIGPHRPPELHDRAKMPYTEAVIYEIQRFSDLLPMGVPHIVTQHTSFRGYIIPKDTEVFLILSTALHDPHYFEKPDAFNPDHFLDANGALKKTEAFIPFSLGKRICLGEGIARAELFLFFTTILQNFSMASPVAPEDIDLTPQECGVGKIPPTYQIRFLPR
pIC50: −log10 of the molar value.
readout: pIC50

The recorded pIC50 for NC(=O)c1nc(-c2c(Cl)cccc2Cl)oc1Nc1ccc(C(=O)N2CCOCC2)cc1 [Comparative Compound B, reference compound] is < 4.52

These entries and their values trace back to patent US12187716B2.
